System: VRE
assay_remarks: Broth microdilution MIC, Example 7 (NCL812 and analogues)
Format: cell-based, Enterococcus spp.
settings: Enterococcus, VRE, bioassay ranking, VRE; read-out: VRE
The following compounds are listed with their measured MIC values.
metric_name: MIC (µg/mL)

1) Nc1nc(N/N=C/c2ccc(Cl)cc2)cc(N/N=C/c2ccc(Cl)cc2)n1: 4
2) C/C(=N\NC(=N)N/N=C(\C)c1ccc(C(C)(C)C)cc1)c1ccc(C(C)(C)C)cc1.Cl: 16
3) Cl.N=C(N/N=C/c1ccc(Cl)cc1)N/N=C/c1ccc(Cl)cc1F: 2
4) CCCC/C(=N\NC(=N)N)c1ccc(Cl)cc1.Cl: 16
5) C/C(=N\NC(=N)N/N=C/c1ccc(Cl)cc1)c1ccc(C(F)(F)F)cc1.Cl: 3
6) Nc1nc(N/N=C/c2ccc(Br)cc2)cc(N/N=C/c2ccc(Br)cc2)n1: 5
7) CC/C(=N\NC(=N)N/N=C(\CC)c1ccc(Cl)cc1O)c1ccc(Cl)cc1O: 4
8) N=C(N/N=C/c1ccc(Cl)cc1)N/N=C/c1ccc(Cl)cc1: 1.75
9) C/C(=N\NC(=N)N/N=C(\C)c1ccc(C(F)(F)F)cc1)c1ccc(Cl)cc1.Cl: 0.75
